Reference source: the supplement of paper PMC10307832

- Test system: NCI-H1563
- experimental-protocol: relative viability (nuclei count vs DMSO), 5 days (fraction); higher = more cells survive
- experimental-conditions: first compound 0.3162 µM
experimental-readout: relative viability

Guide cases for relative viability, answers given:
{"compound": "CC(C)Oc1cc(Nc2nc(N[C@@H](C)c3ccc(F)cn3)ncc2Cl)n[nH]1 [AZ23] + CS(=O)(=O)CCNCc1ccc(-c2ccc3ncnc(Nc4ccc(OCc5cccc(F)c5)c(Cl)c4)c3c2)o1 [Lapatinib] (partner 2 µM)", "experimental-value": 0.921}
{"compound": "CC(C)Oc1cc(Nc2nc(N[C@@H](C)c3ccc(F)cn3)ncc2Cl)n[nH]1 [AZ23] + COc1cccc2cc(-c3nc([C@H]4CC[C@H](C(=O)O)CC4)n4ncnc(N)c34)[nH]c12 [OSI-027] (partner 0.5 µM)", "experimental-value": 0.775}
{"compound": "CC(C)Oc1cc(Nc2nc(N[C@@H](C)c3ccc(F)cn3)ncc2Cl)n[nH]1 [AZ23] + C[C@]1(O)C[C@@H](c2nc(-c3ccc4ccc(-c5ccccc5)nc4c3)c3c(N)nccn32)C1 [Linsitinib] (partner 1 µM)", "experimental-value": 1.08}

Reported relative viability, compound CC(C)Oc1cc(Nc2nc(N[C@@H](C)c3ccc(F)cn3)ncc2Cl)n[nH]1 [AZ23] + Cc1nc(Nc2ncc(C(=O)Nc3c(C)cccc3Cl)s2)cc(N2CCN(CCO)CC2)n1 [Dasatinib] (partner 0.075 µM) : ____ 0.469

Reported relative viability, compound CC(C)Oc1cc(Nc2nc(N[C@@H](C)c3ccc(F)cn3)ncc2Cl)n[nH]1 [AZ23] + COc1cc2c(Oc3ccc(NC(=O)C4(C(=O)Nc5ccc(F)cc5)CC4)cc3F)ccnc2cc1OCCCN1CCOCC1 [Foretinib] (partner 0.25 µM) : ____ 0.993

Reported relative viability, compound CC(C)Oc1cc(Nc2nc(N[C@@H](C)c3ccc(F)cn3)ncc2Cl)n[nH]1 [AZ23] + Cc1nc(NC(=O)N2CCC[C@H]2C(N)=O)sc1-c1ccnc(C(C)(C)C(F)(F)F)c1 [Alpelisib] (partner 2 µM) : ____ 0.899
